Test system: biotinyl-Phe-oxazolone
Assay Text: self-aminoacylation, catalytic enhancement (BFO) (fold over background); higher = more active; k-Seq, kA / k0A0; sequences stand for … in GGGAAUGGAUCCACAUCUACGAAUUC…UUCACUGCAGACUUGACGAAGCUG
This sample holds only a part of the variants without activity.
Measured Property: self-aminoacylation
Please reply with the number alone, leaving off any unit.

Use the examples below as a reference point.
QUERY: Hello, please tell me recorded self-aminoacylation for this one: AUGUUUGCUAAUAGUCGCACG [Fam3.1 aminoacylation ribozyme variant]
RESULT: 1.24

QUERY: Hello, please tell me recorded self-aminoacylation for this one: AUUCCCCUGGUCACCGAGUGA [Fam2.1 aminoacylation ribozyme variant]
RESULT: 73.1

QUERY: Hello, please tell me recorded self-aminoacylation for this one: CCACACUGCAGGCAAUCGGUC [Fam1B.1 aminoacylation ribozyme variant]
RESULT: 5.92

Now let's try a different one.
QUERY: Hello, please tell me recorded self-aminoacylation for this one: AAGUGUGCUAAUAGUCGAAAG [Fam3.1 aminoacylation ribozyme variant]
RESULT: 11.5

----------
Tested on: biotinyl-Trp-oxazolone
Assay Text: self-aminoacylation, catalytic enhancement (BWO) (fold over background); higher = more active; k-Seq, kA / k0A0; sequences stand for … in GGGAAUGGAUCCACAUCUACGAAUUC…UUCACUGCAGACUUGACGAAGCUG
Variants at the floor of the assay were thinned out.
Criterion: self-aminoacylation meeting or surpassing 3. Met: YES. Not met: NO.

QUERY: API: above_or_equal(metric=self-aminoacylation, cutoff=3) for item CAACUUCAAACAAUCGGUCUG [Fam1A.1 aminoacylation ribozyme variant]
RESULT: YES

QUERY: API: above_or_equal(metric=self-aminoacylation, cutoff=3) for item CUCCUUCAAACAAGCGGUCUG [Fam1A.1 aminoacylation ribozyme variant]
RESULT: NO

QUERY: API: above_or_equal(metric=self-aminoacylation, cutoff=3) for item AUUAACCUGGUCAUGGAGUGA [Fam2.1 aminoacylation ribozyme variant]
RESULT: YES

Continuing:
QUERY: API: above_or_equal(metric=self-aminoacylation, cutoff=3) for item GAGUUUGCCAAUAGUCGCAAG [Fam3.1 aminoacylation ribozyme variant]
RESULT: NO

QUERY: API: above_or_equal(metric=self-aminoacylation, cutoff=3) for item AUACACCUAGGUGAUCGGGUG [Fam2.2 aminoacylation ribozyme variant]
RESULT: YES

----------
System: biotinyl-Met-oxazolone
Assay Text: self-aminoacylation, catalytic enhancement (BMO) (fold over background); higher = more active; k-Seq, kA / k0A0; sequences stand for … in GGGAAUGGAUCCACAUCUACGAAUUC…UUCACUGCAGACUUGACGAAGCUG
Fewer inactive variants are shown than the library holds.
A collection of sequences and their measured self-aminoacylation
Please reply with the number alone, leaving off any unit.

QUERY: Hello, please tell me recorded self-aminoacylation for this one: AUUCCCCUGGUCAUCGAGUUA [Fam2.1 aminoacylation ribozyme variant]
RESULT: 1.09

QUERY: Hello, please tell me recorded self-aminoacylation for this one: CCACACUGCAUGCAAUCGGUC [Fam1B.1 aminoacylation ribozyme variant]
RESULT: 0.803

QUERY: Hello, please tell me recorded self-aminoacylation for this one: AUUACCCUGGACAUCUAGUGA [Fam2.1 aminoacylation ribozyme variant]
RESULT: 5.4

QUERY: Hello, please tell me recorded self-aminoacylation for this one: GUUCACCUAGGUCAUCAGGUG [Fam2.2 aminoacylation ribozyme variant]
RESULT: 1.09

QUERY: Hello, please tell me recorded self-aminoacylation for this one: CCACUAUUCAAGCAAUCGGUC [Fam1B.1 aminoacylation ribozyme variant]
RESULT: 0.916

QUERY: Hello, please tell me recorded self-aminoacylation for this one: AUUCCUCUAGGUCAUCGGGUG [Fam2.2 aminoacylation ribozyme variant]
RESULT: 16.6

QUERY: Hello, please tell me recorded self-aminoacylation for this one: UUACUUGAAACAAUCGGUCUG [Fam1A.1 aminoacylation ribozyme variant]
RESULT: 1.32

QUERY: Hello, please tell me recorded self-aminoacylation for this one: AUUACCCUGGUUAUCUAGUGA [Fam2.1 aminoacylation ribozyme variant]
RESULT: 14.4

QUERY: Hello, please tell me recorded self-aminoacylation for this one: AAGUUUGCUAAUAGUCGUCAG [Fam3.1 aminoacylation ribozyme variant]
RESULT: 0.638
